test system: EKVX; experiment: NCI one-dose screen; assay type: cell-based; conditions: Homo sapiens, read-out: Growth Percent
// label = Met if activity at 10 µM is not less than 90%, otherwise Not met

Please review the entries below; each comes with its answer.
COc1ccc(/C=C/C(=O)c2ccc(-n3cc(CN4CCN(c5cc6c(cc5F)c(=O)c(C(=O)O)cn6C5CC5)CC4)nn3)cc2)cc1: Met
O=C(/C=C/c1cccc(Cl)c1)c1ccc(-n2cc(CN3CCN(c4cc5c(cc4F)c(=O)c(C(=O)O)cn5C4CC4)CC3)nn2)cc1: Not met
COc1ccc(/C=C/C(=O)c2ccc(-n3cc(CN4CCN(c5cc6c(cc5F)c(=O)c(C(=O)O)cn6C5CC5)CC4)nn3)cc2)cc1OC: Met

Form field: activity at 10 µM at least 90%? Entry: O=C(/C=C/c1ccc(Br)cc1)c1ccc(-n2cc(CN3CCN(c4cc5c(cc4F)c(=O)c(C(=O)O)cn5C4CC4)CC3)nn2)cc1
Not met

Form field: activity at 10 µM at least 90%? Entry: COc1cc(/C=C/C(=O)c2ccc(-n3cc(CN4CCN(c5cc6c(cc5F)c(=O)c(C(=O)O)cn6C5CC5)CC4)nn3)cc2)cc(OC)c1OC
Not met

Form field: activity at 10 µM at least 90%? Entry: CN(C)c1ccc(/C=C/C(=O)c2ccc(-n3cc(CN4CCN(c5cc6c(cc5F)c(=O)c(C(=O)O)cn6C5CC5)CC4)nn3)cc2)cc1
Met

Form field: activity at 10 µM at least 90%? Entry: O=C(/C=C/c1ccc(Cl)cc1)c1ccc(-n2cc(CN3CCN(c4cc5c(cc4F)c(=O)c(C(=O)O)cn5C4CC4)CC3)nn2)cc1
Met
